Listed here are compounds together with their documented activation.
System: Nuclear hormone receptor DAF-12 (Heterodera glycines), GAL4 fusion
protocol.details: H. glycines DAF-12 receptor agonists, primary screen, cell-based, luminescence, HEK293, GAL4 fusion, UAS-luciferase (AID 687014);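 also: 0% = DMSO wells and 100% = sodium butyrate wells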
stated.conditions: HEK293 GAL4-hgDAF12 UAS-luciferase reporter, agonist luminescence; at 6.8 µM; active compounds read high; normalized to butyrate control
About 6,800 (1.8%) of roughly 370,000 compounds were called active. For the sample, actives were picked, then their nearest neighbours and some compounds at random.

compound: CCCC[C@H]1C2CC(OC(=O)NCc3ccccc3)C(C2)[C@H]2CCCCN21 (stereo not given in full)
unit.spec: %
activation: -3.36

compound: O=C(NC(=S)NC1CCS(=O)(=O)C1)c1cccc([N+](=O)[O-])c1 (stereo not given)
unit.spec: %
activation: 3.84

compound: Cc1ccc(NC(=O)C(=O)NCC2CCN(C(=O)c3cccc([N+](=O)[O-])c3)CC2)cc1
unit.spec: %
activation: 1.22

compound: Cc1c(C(C)c2ccccc2O)[nH]c2ccccc12 (stereo not given)
unit.spec: %
activation: 2.99

compound: O=C(Nc1ccc(C2CC2(Cl)Cl)cc1)c1cccc([N+](=O)[O-])c1 (stereo not given)
unit.spec: %
activation: 14.5

This collection of values is drawn from PubChem BioAssay AID687014.
